Exercise: state measured selectivity ratio for each of the compounds provided.
- TEST_PROTOCOL: Selectivity index, ratio of IC50 for human HEK293 cells to IC50 for antitrypanosomal activity against Trypanosoma brucei brucei 427
- Assay type: toxicity
- CONDITION_NOTES: read-out: Ratio IC50

Query block: // selectivity ratio lookup, key: `N=C(N)c1ccc(OCCCCCOc2ccc(C(=N)N)cc2)cc1`
Result block: 307

Query block: Please answer likewise for `COc1cccc(-c2c(C(=O)Nc3nc4c(s3)C(=O)CCC4)sc3ccccc23)c1`
Result block: > 9

Query block: Please answer likewise for `Cc1ccc2c(Cl)c(C(=O)Nc3nc4c(s3)C(=O)CC(C)(C)C4)sc2c1`
Result block: > 37

Query block: Please answer likewise for `CC1(C)CC(=O)c2sc(NC(=O)c3cc4cccc(-c5ccccc5)c4s3)nc2C1`
Result block: > 28

Query block: Please answer likewise for `CC1(C)CC(=O)c2sc(NC(=O)c3sc4cc(Br)ccc4c3Cl)nc2C1`
Result block: > 12

Query block: Please answer likewise for `CC1(C)CC(=O)c2sc(NC(=O)c3sc4ccccc4c3Cl)nc2C1`
Result block: 14

Query block: Please answer likewise for `COc1ccc(-c2c(C(=O)Nc3nc4c(s3)C(=O)CC(C)(C)C4)sc3ccccc23)cc1`
Result block: > 29

Query block: Please answer likewise for `COc1ccc2sc(C(=O)Nc3nc4c(s3)C(=O)CC(C)(C)C4)c(Cl)c2c1`
Result block: > 14

Query block: Please answer likewise for `CC1(C)CC(=O)c2sc(NC(=O)c3cc4ccccc4s3)nc2C1`
Result block: > 106

Query block: Please answer likewise for `COc1ccc(-c2c(C(=O)Nc3nc4c(s3)C(=O)CCC4)sc3ccccc23)cc1`
Result block: > 12

Query block: Please answer likewise for `O=C1CCCc2nc(NC(=O)c3sc4ccccc4c3-c3cccc4ccccc34)sc21`
Result block: 1

Query block: Please answer likewise for `O=C1CCCc2nc(NC(=O)c3sc4ccccc4c3Cl)sc21`
Result block: > 48

Query block: Please answer likewise for `Cc1ccc2c(Cl)c(C(=O)Nc3nc4c(s3)C(=O)CCC4)sc2c1`
Result block: > 11

Query block: Please answer likewise for `COc1cccc(-c2c(C(=O)Nc3nc4c(s3)C(=O)CC(C)(C)C4)sc3ccccc23)c1`
Result block: > 38

Query block: Please answer likewise for `CC1(C)CC(=O)c2sc(NC(=O)c3nc4ccccc4s3)nc2C1`
Result block: > 56

Query block: Please answer likewise for `CC1(C)CC(=O)c2sc(NC(=O)c3sc4c(Br)cccc4c3Cl)nc2C1`
Result block: > 130
